Assay: Metabolic stability in human hepatic microsome
Type: in vitro ADME
Conditions: microsomes, pH 7.4; human hepatic microsome, NADPH(+); read-out: CL NADPH(+)
Starred links: 1 amine or outer side, 2 acyl side, 3 side chain; linkers in the order of their positions; H or OH if unused. Positions of bridges follow the written chain, without caps; N, C: chain ends. Non-standard residues stand in square brackets, D forms with d. Residues, ends and D or L forms follow the SMILES beside them. *: point of attachment. Phe(3-(CH2)4CO) = O=C([C@H](Cc1cccc(CCCCC(=O)[*:3])c1)N[*:1])[*:2]; NMePhe(3-Cl) = CN[C@@H](Cc1cccc(Cl)c1)C(=O)O; NMeF = CN[C@@H](Cc1ccccc1)C(=O)O; NMeGABA = CN(CCCC(=O)[*:2])[*:1]; NMeI = CC[C@H](C)[C@H](NC)C(=O)O; NMeβAla = CN(CCC(=O)[*:2])[*:1]; NMeL = CN[C@@H](CC(C)C)C(=O)O; NMeV = CN[C@H](C(=O)O)C(C)C; NMeA = CN[C@@H](C)C(=O)O; Piperidide = C1CCN(*)CC1; dNMeA = CN[C@H](C)C(=O)O; β3hA = C[C@H](N)CC(=O)O; NPrGly = CCCNCC(=O)O; Sar = CNCC(=O)O; tBu = CC(C)(C)*
readout label: microsomal CLint at 1 uM (µL/min/mg)
I only need the number, in µL/min/mg, no unit after it.

The cases that follow already have their microsomal CLint at 1 uM on record.
compound	microsomal CLint at 1 uM [µL/min/mg]
C=C1CCC(=O)N[C@@H](CC(C)C)C(=O)N[C@@H](Cc2ccccc2)C(=O)N[C@@H]([C@@H](C)O)C(=O)N[C@@H](CC(C)C)C(=O)N(C)[C@@H](C)C(=O)N[C@@H](Cc2ccccc2)C(=O)NCC(=O)N[C@@H](C(C)C)C(=O)N[C@@H](CC(C)C)C(=O)N[C@@H](C)C(=O)N(C)[C@@H](CC(C)C)C(=O)N[C@H](C(=O)N2CCCCC2)Cc2ccc1cc2	21
CCCN1CC(=O)N(C)[C@@H](Cc2ccccc2)C(=O)N[C@@H](C)C(=O)N(C)[C@@H](Cc2ccccc2)C(=O)N(C)[C@@H](CC(C)C)C(=O)N(C)[C@@H]([C@@H](C)CC)C(=O)N(C)[C@@H](CC(C)C)C(=O)N[C@H](C(=O)N2CCCCC2)Cc2cccc(c2)CCCCC(=O)N[C@@H](CC(C)C)C(=O)N[C@@H]([C@@H](C)O)C1=O [DP-867] (LT[NPrGly][NMeF]A[NMeF][NMeL][NMeI][NMeL][Phe(3-(CH2)4CO)]-Piperidide; lactam N-10)	211
CC[C@H](C)[C@@H]1NC(=O)[C@H](C)N(C)C(=O)[C@H]([C@@H](C)O)NC(=O)[C@H](Cc2ccccc2)N(C)C(=O)[C@H](CC(C)C)N(C)C(=O)CCCN(C)C(=O)C[C@@H](C(=O)N(C)[C@@H](Cc2ccccc2)C(=O)N[C@@H](C)C(=O)N2CCCCC2)NC(=O)[C@H](C(C)C)N(C)C(=O)[C@H](CC(C)C)N(C)C1=O [DP-384] ([NMeGABA][NMeL][NMeF]T[NMeA]I[NMeL][NMeV]D[NMeF]A-Piperidide; lactam N-9)	214
CC[C@H](C)[C@@H]1NC(=O)CN(C)C(=O)[C@H](Cc2ccccc2)N(C)C(=O)[C@H](C)N(C)C(=O)[C@H]([C@@H](C)O)NC(=O)[C@H](CC(C)C)N(C)C(=O)[C@@H](C)N(C)C(=O)C[C@@H](C(=O)N(C)[C@@H](Cc2ccccc2)C(=O)N[C@@H](C)C(=O)N2CCCCC2)NC(=O)[C@H](C(C)C)N(C)C(=O)[C@H](CC(C)C)N(C)C1=O [DP-371] ([dNMeA][NMeL]T[NMeA][NMeF][Sar]I[NMeL][NMeV]D[NMeF]A-Piperidide; lactam N-10)	31
CC(C)C[C@H]1C(=O)N(C)[C@@H](Cc2ccccc2)C(=O)N[C@@H]([C@@H](C)O)C(=O)N(C)[C@@H](C)C(=O)N[C@@H](C)C(=O)N(C)[C@@H](Cc2ccccc2)C(=O)N[C@@H](C)C(=O)N(C)[C@@H](C(C)C)C(=O)N(C)[C@@H](C)C(=O)N[C@H](C(=O)N(C)[C@@H](Cc2ccccc2)C(=O)N[C@@H](C)C(=O)N2CCCCC2)CC(=O)N(C)[C@H](C)C(=O)N1C [DP-348] ([dNMeA][NMeL][NMeF]T[NMeA]A[NMeF]A[NMeV][NMeA]D[NMeF]A-Piperidide; lactam N-11)	17
CC[C@H](C)[C@H]1C(=O)N[C@@H](COC(C)(C)C)C(=O)N[C@@H](C)CC(=O)N(C)[C@@H](C)C(=O)N(C)[C@@H](Cc2cccc(Cl)c2)C(=O)N(C)CC(=O)N(C)[C@@H](CC(C)C)C(=O)N[C@@H]([C@@H](C)O)C(=O)N(C)[C@@H](C)C(=O)N(C)[C@@H](CC(C)C)C(=O)N1C [DP-803] (cyclo([NMeA][NMeL][NMeI]S(tBu)[β3hA][NMeA][NMePhe(3-Cl)][Sar][NMeL]T))	85

Asked: For the compound CC(C)C[C@@H]1NC(=O)[C@H](C)NC(=O)[C@H]([C@@H](C)O)NC(=O)[C@H](C)N(C)C(=O)C[C@@H](C(=O)N2CCCCC2)NC(=O)[C@H](CC(C)C)N(C)C(=O)[C@H](CC(C)C)NC(=O)[C@H](C(C)C)N(C)C(=O)[C@H](CC(C)C)NC(=O)[C@H](Cc2ccccc2)NC(=O)CN(C)C1=O [DP-421] ([NMeA]TAL[Sar]FL[NMeV]L[NMeL]D-Piperidide; lactam N-11) , give its reported microsomal CLint at 1 uM.
Given back: 171

Asked: For the compound CC[C@H](C)[C@H](NC(=O)[C@H](CC(C)C)N(C)C(=O)[C@H](CC(C)C)NC(=O)[C@@H]1CC(=O)N[C@@H](C)C(=O)N(C)[C@@H](Cc2ccccc2)C(=O)N(C)[C@@H](CC(C)C)C(=O)N(C)[C@@H](CC(C)C)C(=O)N[C@@H](Cc2ccccc2)C(=O)N[C@@H]([C@@H](C)O)C(=O)N[C@@H](C(C)C)C(=O)N1)C(=O)N1CCCCC1 [DP-934] (A[NMeF][NMeL][NMeL]FTVDL[NMeL]I-Piperidide; lactam N-8) , give its reported microsomal CLint at 1 uM.
Given back: 143

Asked: For the compound CC[C@H](C)[C@H](NC(=O)[C@H](Cc1ccccc1)N(C)C(=O)[C@@H]1CC(=O)N[C@@H](C)C(=O)N(C)[C@@H](CC(C)C)C(=O)N[C@@H]([C@@H](C)O)C(=O)N(C)CC(=O)N(C)[C@@H](Cc2ccccc2)C(=O)N[C@@H](CC(C)C)C(=O)N1)C(=O)N1CCCCC1 [DP-567] (A[NMeL]T[Sar][NMeF]LD[NMeF]I-Piperidide; lactam N-7) , give its reported microsomal CLint at 1 uM.
Given back: 224

Asked: For the compound CC(C)C[C@@H]1NC(=O)[C@H](CC(C)C)N(C)C(=O)CCN(C)C(=O)C[C@@H](C(=O)N(C)[C@@H](Cc2ccccc2)C(=O)N[C@@H](C)C(=O)N2CCCCC2)NC(=O)[C@H]([C@@H](C)O)NC(=O)[C@H](CC(C)C)N(C)C(=O)[C@H](Cc2ccccc2)NC(=O)[C@H](Cc2ccccc2)N(C)C(=O)[C@H](CC(C)C)N(C)C1=O [DP-461] ([NMeβAla][NMeL]L[NMeL][NMeF]F[NMeL]TD[NMeF]A-Piperidide; lactam N-9) , give its reported microsomal CLint at 1 uM.
Given back: 78
